SYSTEM: mouse ADAMTS7 (Mus musculus, UniProt Q68SA9)
Construct: Full-length mouse Adamts7 1-1857 (Uniprot Q68SA9, WT or E373Q catalytic mutant); expressed in transfected cells; host or cells: Human Coronary Artery Smooth Muscle Cells (HCA-SMC, Lonza), adenovirus 50 MOI
Sequence (Q68SA9 221-1657): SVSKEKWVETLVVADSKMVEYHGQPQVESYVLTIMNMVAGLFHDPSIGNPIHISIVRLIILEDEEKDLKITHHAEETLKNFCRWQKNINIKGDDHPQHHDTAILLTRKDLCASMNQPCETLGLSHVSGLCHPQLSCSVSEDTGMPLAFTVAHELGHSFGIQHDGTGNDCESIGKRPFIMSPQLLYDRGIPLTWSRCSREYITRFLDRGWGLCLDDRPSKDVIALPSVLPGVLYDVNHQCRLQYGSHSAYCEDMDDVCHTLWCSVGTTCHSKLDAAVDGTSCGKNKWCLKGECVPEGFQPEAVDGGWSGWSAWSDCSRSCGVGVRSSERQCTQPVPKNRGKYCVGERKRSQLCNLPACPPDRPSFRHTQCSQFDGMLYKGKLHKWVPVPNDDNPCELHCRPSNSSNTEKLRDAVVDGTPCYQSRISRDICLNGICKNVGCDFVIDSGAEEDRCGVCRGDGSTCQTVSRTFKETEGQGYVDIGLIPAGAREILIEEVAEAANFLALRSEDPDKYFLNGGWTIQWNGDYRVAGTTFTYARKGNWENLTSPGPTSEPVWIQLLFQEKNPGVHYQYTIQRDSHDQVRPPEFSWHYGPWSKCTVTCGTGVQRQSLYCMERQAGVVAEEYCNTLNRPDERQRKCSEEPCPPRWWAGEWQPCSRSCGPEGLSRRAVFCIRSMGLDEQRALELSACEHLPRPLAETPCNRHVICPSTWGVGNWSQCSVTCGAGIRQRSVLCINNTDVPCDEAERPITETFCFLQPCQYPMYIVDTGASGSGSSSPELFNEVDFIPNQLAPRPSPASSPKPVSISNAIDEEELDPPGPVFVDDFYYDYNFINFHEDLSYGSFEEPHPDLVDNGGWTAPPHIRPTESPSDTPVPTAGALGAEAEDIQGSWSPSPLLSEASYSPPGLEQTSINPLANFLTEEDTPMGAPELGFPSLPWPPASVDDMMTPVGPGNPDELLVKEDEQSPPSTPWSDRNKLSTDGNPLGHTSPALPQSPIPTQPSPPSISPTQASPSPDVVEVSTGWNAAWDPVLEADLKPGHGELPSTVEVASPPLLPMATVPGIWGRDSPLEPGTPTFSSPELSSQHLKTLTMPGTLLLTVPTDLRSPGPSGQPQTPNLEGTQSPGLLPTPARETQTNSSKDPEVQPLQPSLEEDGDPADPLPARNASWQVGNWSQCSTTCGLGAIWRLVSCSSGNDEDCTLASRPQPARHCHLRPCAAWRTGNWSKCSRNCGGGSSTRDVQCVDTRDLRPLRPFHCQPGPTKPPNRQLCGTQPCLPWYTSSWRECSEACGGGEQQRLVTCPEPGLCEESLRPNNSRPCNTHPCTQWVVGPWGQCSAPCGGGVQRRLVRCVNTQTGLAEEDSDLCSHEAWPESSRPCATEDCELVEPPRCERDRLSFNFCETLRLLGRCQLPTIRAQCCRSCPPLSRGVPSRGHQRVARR
PROTOCOL DESCRIPTION: TMT10 TAILS N-terminomics, SMC2 experiment (process replicates, trypsin/AspN digest)
Assay type: cell-based
SETUP CONDITIONS: log fold change, ADAMTS7 WT over luciferase
Square brackets hold non-standard residues; d marks the D form. Ends that are not written are not given here.
READOUT KIND: logFC.mWT.over.Lux
Reply with just the number.

Consider the reported logFC.mWT.over.Lux for these substances:
substance="STC2_239 (HGEAGHHLPEPSSR; listed as Homo sapiens)" reported=1.59
substance="SRGN_51 (EEKGPMFELLPGESNKIPR; listed as Homo sapiens)" reported=1.66
substance="TLN1_1501 (HTSALCNSCR; listed as Homo sapiens)" reported=1.31
substance="TGFBI_276 (TLLAPT[code n]EAFEKIPSETLNR; not fully specified; listed as Homo sapiens)" reported=0.75
substance="TG_1017 (GASALLR; listed as Homo sapiens)" reported=4.08

# evaluate next
Requested field: logFC.mWT.over.Lux. Item: TGFBI_497 (VLTPPMGTVMDVLKGDNR; not fully specified (residue 6); listed as Homo sapiens)
0.75
